- assay overview: Octanol-water distribution coefficient log Dat pH 7.4 by water-plug aspiration/injection method combined with HPLC-mass spectrometry
logD values for the compounds below.
result type: logD

> print(dat)
                                input.smiles  val
 1  Cc1cccc(CNc2cc(N3CCS(=O)(=O)CC3)cc(CSc3nc(C)c(C)o3)n2)n1  2.2
 2  Cc1nc(SCc2cc(N3CCOCC3)cc(NCc3cccc(OCCF)n3)n2)oc1C  3.9
 3  Cc1nc(SCc2cc(N3CCS(=O)(=O)CC3)cc(NCc3cccc(F)n3)n2)oc1C  2.3
 4  Cc1cccc(CNc2cc(N3CCOCC3)cc(CSc3nc(CF)c(C)s3)n2)n1  2.7
 5  Cc1cccc(CNc2cc(N3CCOCC3)cc(CSc3nc(C)c(C)s3)n2)n1  2.9
 6  Cc1nc(SCc2cc(N3CCOCC3)cc(NCc3cccc(CF)n3)n2)oc1C    3
 7  Cc1cccc(CNc2cc(N3CCOCC3)cc(CSc3nc(C)c(CF)s3)n2)n1  2.3
 8  Cc1cccc(CNc2cc(N3CCSCC3)cc(CSc3nc(C)c(C)o3)n2)n1  3.6
 9  Cc1nc(SCc2cc(N3CCOCC3)cc(NCc3cccc(F)n3)n2)oc1C  3.1
10  Cc1nc(SCc2cc(N3CCOCC3)cc(NCc3ccc(F)nc3)n2)oc1C    3

Reference source for all entries: ChEMBL document CHEMBL1155324
